Target: GST-Nv-NF-kB (Cys allele) (Nematostella vectensis, UniProt E5G601 2-411)
Sequence: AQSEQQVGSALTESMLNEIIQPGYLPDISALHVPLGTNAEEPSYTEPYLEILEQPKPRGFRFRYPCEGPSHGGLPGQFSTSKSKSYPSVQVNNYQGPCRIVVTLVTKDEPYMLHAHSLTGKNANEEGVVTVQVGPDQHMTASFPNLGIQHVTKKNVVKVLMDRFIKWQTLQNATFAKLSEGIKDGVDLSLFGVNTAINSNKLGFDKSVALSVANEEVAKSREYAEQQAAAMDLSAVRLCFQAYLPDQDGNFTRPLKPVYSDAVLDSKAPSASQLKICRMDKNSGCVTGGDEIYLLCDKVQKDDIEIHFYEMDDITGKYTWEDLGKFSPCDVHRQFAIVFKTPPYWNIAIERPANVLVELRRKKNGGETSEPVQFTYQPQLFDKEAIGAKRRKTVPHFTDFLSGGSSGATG
Assay: protein-binding microarray (PBM); PBM: ~300 nM protein, 6 mM HEPES pH 7.8, 80 mM KCl, 0.5 mM EDTA, 0.5 mM EGTA, 6% glycerol, 35 ng/ul poly-dIdC, 1% milk, 1 h, room temperature; Ap Aiptasia and Nv Nematostella (sea anemones) / Co Capsaspora / Aq Amphimedon (sponge) / Dm Drosophila / Hu human; RHD is the Rel homology domain; high values mean tight binding
Details: dsDNA, one strand shown
# binding signal values compiled below
Write the number in z-score without appending the unit.

Worked set:
SEQUENCE_ENTRY | SYSTEM_UNDER_TEST | VALUE_UNITS | binding signal
CCGATTAACATCAGGGGGAAGCATGATGTTAATCGGGTCTTGATTCGCTTGACGCTGCTG | GST-Nv-NF-kB (Cys allele) (Nematostella vectensis, UniProt E5G601 2-411) | z-score | 5.1
CCGATTAACATCAGGATAACCCCTGATGTTAATCGGGTCTTGATTCGCTTGACGCTGCTG | GST-Nv-NF-kB (Cys allele) (Nematostella vectensis, UniProt E5G601 2-411) | z-score | 3.22
CCGATTAACATCAATCCTCCCCCTGATGTTAATCGGGTCTTGATTCGCTTGACGCTGCTG | GST-Nv-NF-kB (Cys allele) (Nematostella vectensis, UniProt E5G601 2-411) | z-score | 4.44
CCGATTAACATCAGAATTTCCCCTGATGTTAATCGGGTCTTGATTCGCTTGACGCTGCTG | GST-Nv-NF-kB (Cys allele) (Nematostella vectensis, UniProt E5G601 2-411) | z-score | 10.1

Summary line: `CCGATTAACATCAAAAAAATACCTGATGTTAATCGGGTCTTGATTCGCTTGACGCTGCTG` , GST-Nv-NF-kB (Cys allele) (Nematostella vectensis, UniProt E5G601 2-411), reported binding signal = 2.83

Summary line: `CCGATTAACATCACGTGTTTCCCTGATGTTAATCGGGTCTTGATTCGCTTGACGCTGCTG` , GST-Nv-NF-kB (Cys allele) (Nematostella vectensis, UniProt E5G601 2-411), reported binding signal = 2.76

Summary line: `CCGATTAACATCAGGAATACCCATGATGTTAATCGGGTCTTGATTCGCTTGACGCTGCTG` , GST-Nv-NF-kB (Cys allele) (Nematostella vectensis, UniProt E5G601 2-411), reported binding signal = 4.62

Summary line: `CCGATTAACATCACGGGACATACTGATGTTAATCGGGTCTTGATTCGCTTGACGCTGCTG` , GST-Nv-NF-kB (Cys allele) (Nematostella vectensis, UniProt E5G601 2-411), reported binding signal = 1.3

Summary line: `CCGATTAACATCAGGGGCAACCCTGATGTTAATCGGGTCTTGATTCGCTTGACGCTGCTG` , GST-Nv-NF-kB (Cys allele) (Nematostella vectensis, UniProt E5G601 2-411), reported binding signal = 2.89

Data provenance is paper PMC5700166.
